Test system: RXF 393 renal
Assay: NCI tumour cell line growth inhibition, 48 h
Classify on TGI using low: < 2 µM; mid: ≥ 2 µM and < 10 µM; high: ≥ 10 µM

compound: COC(=O)c1ccc([C@H]2c3[nH]c4ccccc4c3C[C@H](C(=O)OC)N2C(=O)CCl)cc1
testSystem: RXF 393 renal
labelClass: low
--
compound: COC(=O)c1ccccc1C1CN=NC12Cc1c(C)cccc1C2=O (stereo not given)
testSystem: RXF 393 renal
labelClass: high
--
compound: Cc1ccc(S(=O)(=O)Oc2ccccc2-c2ccccc2)cc1
testSystem: RXF 393 renal
labelClass: high
--
compound: O=C(/C=C/c1ccccc1O)C(c1ccccc1)c1ccccc1
testSystem: RXF 393 renal
labelClass: high
--
compound: COc1cc2c3c(n(CCCN(C)C)c(=O)c2cc1OC)-c1cc2c(cc1C3=O)OCO2
testSystem: RXF 393 renal
labelClass: high
--
compound: CCOC(=O)C1(C(C)=O)OC(=O)c2cnccc21 (stereo not given)
testSystem: RXF 393 renal
labelClass: high
--
compound: Cc1ccc2c3c4c(ccc13)C(C)(C)OC4=C(C(C)C)C2=O
testSystem: RXF 393 renal
labelClass: high
--
compound: c1ccc(C[n+]2ccc3c(c2)CCCC3)cc1
testSystem: RXF 393 renal
labelClass: high
--
compound: CCN(CCCl)CCCCNc1c2ccccc2nc2ccc(OC)cc12
testSystem: RXF 393 renal
labelClass: low
--
compound: C[n+]1cn(-c2ccc([N+](=O)[O-])cn2)c2ccccc21
testSystem: RXF 393 renal
labelClass: high
--
compound: COC1OC(C)C(OC(=O)C(C)(C)C)C(OS(=O)(=O)c2ccc(C)cc2)C1OS(=O)(=O)c1ccc(C)cc1 (stereo not given)
testSystem: RXF 393 renal
labelClass: high
--
compound: C=C1C(=O)C2=C[C@H]1C[C@H](O)C(=O)[C@]1(C)CCCC(C)(C)[C@H]1C[C@H]2O
testSystem: RXF 393 renal
labelClass: low
--
compound: C[PH+](C)C.C[PH+](C)C.[Au]
testSystem: RXF 393 renal
labelClass: mid
--
compound: COc1c(C)c(OC)c2c(c1O)[C@@H]1[C@@H]3Cc4c(OC)c(C)c(OC)c(O)c4[C@H](CNC(=O)c4ccc5ccccc5n4)N3[C@@H](C#N)[C@H](C2)N1C
testSystem: RXF 393 renal
labelClass: low
--
compound: O=c1[nH]c2ccccc2nc1CBr
testSystem: RXF 393 renal
labelClass: mid
--
compound: N#Cc1cc(-c2nc3cc(F)ccc3s2)ccc1N
testSystem: RXF 393 renal
labelClass: high
--
compound: CCOC(=O)CC1c2ccc(O)cc2OC(=O)C1c1ccc(N)cc1 (stereo not given)
testSystem: RXF 393 renal
labelClass: high
--
compound: Cn1cccc(C(=O)c2ccccc2)c1=O
testSystem: RXF 393 renal
labelClass: high
--
compound: O=C(Nc1ccc(-n2ccc3c(NC(=O)c4ccccc4)nccc32)cc1)c1cccc(C(F)(F)F)c1
testSystem: RXF 393 renal
labelClass: mid
--
compound: CC(C)(C)C1CCC2c3c([nH]c4ccccc34)C3C(=O)N(c4ccc(C(=O)O)cc4)C(=O)C3C2C1 (stereo not given)
testSystem: RXF 393 renal
labelClass: high
--
compound: CC1=Nc2c(N)nc(N)nc2N(C)C1
testSystem: RXF 393 renal
labelClass: high
--
compound: O=C(CC1(O)C(=O)N(Cc2ccccc2)c2ccc(Br)cc21)c1ccc(C(=O)NCC2CCC3(CC2)OOC2(CCCCC2)OO3)cc1 (stereo not given)
testSystem: RXF 393 renal
labelClass: low
--
compound: NC(Cc1ccc(OCc2ccccc2)cn1)C(=O)OCc1ccccc1 (stereo not given)
testSystem: RXF 393 renal
labelClass: high
--
compound: CC1(SCC(N)C(=O)O)CC(=O)NC1=O (stereo not given)
testSystem: RXF 393 renal
labelClass: high
--
compound: O=c1c2c3c(sc2n2c(CCl)nnc2n1Cc1ccccc1)CCCC3
testSystem: RXF 393 renal
labelClass: mid
--
compound: O=C1N=C(c2c(-c3[nH]c(=O)c4ccc(Br)cc4c3O)c(O)c3ccccc3c2O)C(=O)c2cc(Br)ccc21
testSystem: RXF 393 renal
labelClass: low
--
compound: Cc1cc2c(C(C)C)c(O)c(O)c(C=NCC3CCCN4CCCCC34)c2cc1-c1cc2c(C=NCC3CCCN4CCCCC34)c(O)c(O)c(C(C)C)c2cc1C (stereo not given)
testSystem: RXF 393 renal
labelClass: high
--
compound: C=CCCC(CCC=C)(C(=O)O)C(=O)O
testSystem: RXF 393 renal
labelClass: high
--
compound: CCCOc1cc2c(cc1O)CC[C@@H]1[C@@H]2CC[C@]2(C)[C@@H](O)CC[C@@H]12
testSystem: RXF 393 renal
labelClass: high
--
compound: CCCCCCC(C)c1ccc2c(c1)C(=O)c1nc3ccncc3c(=O)n1-2 (stereo not given)
testSystem: RXF 393 renal
labelClass: high
--
compound: Oc1cccc2cc(Cl)cnc12
testSystem: RXF 393 renal
labelClass: high
--
compound: N#Cc1c(-c2ccc(Cl)cc2)cc(-c2cc(O)ccc2O)nc1N
testSystem: RXF 393 renal
labelClass: mid
--
compound: CCOC(=O)[C@@]12C(C)=CC(=O)O[C@]1(C)C[C@H]2C#N
testSystem: RXF 393 renal
labelClass: high
--
compound: COC1CC(OC)C2OC(c3ccccc3)OCC2O1 (stereo not given)
testSystem: RXF 393 renal
labelClass: high
--
compound: COc1cc(C2c3cc4c(cc3[C@@H](NCCCN3CCCC3=O)C3COC(=O)[C@H]23)OCO4)cc(OC)c1O (stereo not given in full)
testSystem: RXF 393 renal
labelClass: high
--
compound: COc1ccc(O)cc1C=O
testSystem: RXF 393 renal
labelClass: high
--
compound: COc1ccc2c(c1)-c1c(c3cc(OC)ccc3n1CCN1CCOCC1)CC2
testSystem: RXF 393 renal
labelClass: high
--
compound: N#CCCN1C/C(=C/c2ccccc2)C(=O)/C(=C/c2ccccc2)C1
testSystem: RXF 393 renal
labelClass: mid
--
compound: O=[N+]([O-])c1ccc(/C(=C\c2ccccc2)Cn2ccnc2)cc1
testSystem: RXF 393 renal
labelClass: high
--
compound: COc1nc(C(=O)O)c(Cl)c(OC)c1Cl
testSystem: RXF 393 renal
labelClass: high
